Target or system Prostaglandin G/H synthase 1 (Homo sapiens, UniProt P23219); recorded quantity IC50.
Express the result in µM but write the number alone.

Here is how some compounds turned out for IC50.
smiles_notation=Cc1nc(-c2ccc(F)cc2)c(-c2ccc(S(N)(=O)=O)cc2)o1 measured_quantity=IC50 reported_measurement=4.7
smiles_notation=CCc1nc(C2CCCCC2)c(-c2ccc(S(C)(=O)=O)cc2)o1 measured_quantity=IC50 reported_measurement=60

Next compound, please.
// query Requested field: IC50. Item: Cc1nc(C2CCCCC2)c(-c2ccc(S(N)(=O)=O)cc2)o1
// result 47.5
